Data origin: patent US20230192890A1

// reported absorbance 490 nm/630 nm per item
target: T1, full-length recombinant human PAD4 (human, UniProt Q9UM07 1-663); test: ELISA, human PAD4 on plate, antibody 1 ug/mL
T1 construct: also called peptidylarginine deiminase 4
T1 sequence (Q9UM07 whole entry): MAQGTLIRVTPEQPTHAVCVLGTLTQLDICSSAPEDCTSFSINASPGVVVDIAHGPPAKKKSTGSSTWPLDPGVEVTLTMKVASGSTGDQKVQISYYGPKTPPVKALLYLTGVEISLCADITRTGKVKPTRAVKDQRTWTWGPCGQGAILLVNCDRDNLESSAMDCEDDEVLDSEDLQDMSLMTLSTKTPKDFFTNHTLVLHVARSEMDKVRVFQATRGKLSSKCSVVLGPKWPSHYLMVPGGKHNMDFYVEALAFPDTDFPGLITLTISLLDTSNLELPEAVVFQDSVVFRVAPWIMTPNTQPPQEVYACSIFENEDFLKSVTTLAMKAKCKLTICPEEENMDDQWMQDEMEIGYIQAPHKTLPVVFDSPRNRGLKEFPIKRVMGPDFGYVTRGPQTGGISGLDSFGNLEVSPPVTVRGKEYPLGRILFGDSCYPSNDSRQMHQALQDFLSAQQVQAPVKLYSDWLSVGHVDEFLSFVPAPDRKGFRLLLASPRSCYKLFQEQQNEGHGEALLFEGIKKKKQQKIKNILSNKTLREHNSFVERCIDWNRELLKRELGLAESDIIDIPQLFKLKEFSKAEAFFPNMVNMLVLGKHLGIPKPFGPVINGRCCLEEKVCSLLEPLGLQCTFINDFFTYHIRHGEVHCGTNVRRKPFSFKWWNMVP
Entry rule: numbers only, all in OD.

E9 (antibody, IgG1, V domains shown, Chicken variable regions in mouse chimeric antibody (IgG1) expression vectors; also called anti-PAD4 antibody E9; A11 etc) VH: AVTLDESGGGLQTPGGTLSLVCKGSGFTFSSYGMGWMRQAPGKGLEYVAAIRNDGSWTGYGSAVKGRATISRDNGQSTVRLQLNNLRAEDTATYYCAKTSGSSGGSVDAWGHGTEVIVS VL: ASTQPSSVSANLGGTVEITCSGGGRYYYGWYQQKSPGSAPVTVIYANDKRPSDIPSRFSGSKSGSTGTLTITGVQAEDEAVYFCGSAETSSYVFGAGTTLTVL    2.11
A11 (antibody, IgG1, V domains shown, Chicken variable regions in mouse chimeric antibody (IgG1) expression vectors; also called anti-PAD4 antibody A11; A11 etc) VH: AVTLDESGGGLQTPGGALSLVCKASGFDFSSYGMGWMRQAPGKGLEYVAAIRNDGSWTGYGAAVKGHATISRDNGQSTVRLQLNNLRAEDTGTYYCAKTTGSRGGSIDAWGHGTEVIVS VL: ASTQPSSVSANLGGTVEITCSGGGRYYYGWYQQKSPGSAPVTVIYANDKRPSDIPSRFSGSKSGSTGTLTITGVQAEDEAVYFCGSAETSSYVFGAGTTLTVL    2.15
H7 (antibody, IgG1, V domains shown, Chicken variable regions in mouse chimeric antibody (IgG1) expression vectors; also called anti-PAD4 antibody H7; A11 etc) VH: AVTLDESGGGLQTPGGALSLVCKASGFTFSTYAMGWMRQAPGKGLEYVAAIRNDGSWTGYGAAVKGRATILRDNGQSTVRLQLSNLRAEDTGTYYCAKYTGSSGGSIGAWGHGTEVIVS VL: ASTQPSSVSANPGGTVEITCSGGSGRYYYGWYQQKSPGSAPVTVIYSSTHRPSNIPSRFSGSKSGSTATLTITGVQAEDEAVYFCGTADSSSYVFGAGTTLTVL    2.11

# context switch: different binder, same absorbance 490 nm/630 nm
Q: Quick check: absorbance 490 nm/630 nm of G6 (antibody, IgG1, V domains shown, Chicken variable regions in mouse chimeric antibody (IgG1) expression vectors; also called anti-PAD4 antibody G6; A11 etc) VH: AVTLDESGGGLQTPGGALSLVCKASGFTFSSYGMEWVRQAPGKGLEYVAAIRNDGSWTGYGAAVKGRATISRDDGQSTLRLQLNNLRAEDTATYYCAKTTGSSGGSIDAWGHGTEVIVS VL: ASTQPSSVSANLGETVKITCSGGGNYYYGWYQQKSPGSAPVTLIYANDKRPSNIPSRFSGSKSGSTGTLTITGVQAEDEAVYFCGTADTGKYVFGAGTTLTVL ?
A: 2.11
